Reported protein stability index values for a set of sequences
Test system: Saccharomyces cerevisiae
assay details: protein stability index of tFT-peptide fusion (C-terminal peptide) (PSI (0-1 scale)); higher = more stable (slower turnover)
test settings: genetic background: das1 deletion; temperature: 30 C
Lab note: record just the number, no unit beside it.

seq string: MERRARQQRGQD [MND2 C-terminal 12 aa]
protein stability index: 0.711
--
seq string: SNSSKNRMNNYR [SPT6 C-terminal 12 aa]
protein stability index: 0.702
--
seq string: SSFSLSLPRLNQ [SPT7 C-terminal 12 aa]
protein stability index: 0.689
--
seq string: SFPIASSTTQTS [NST1 C-terminal 12 aa]
protein stability index: 0.696
--
seq string: LLEDEDRTYNYT [KCH1 C-terminal 12 aa]
protein stability index: 0.689

Continue with the sequence presented below.
Query: Give protein stability index for the following sequence: KKIVIIYVVRFH [BSC4 C-terminal 12 aa]
Response: 0.304

====

System: Saccharomyces cerevisiae
assay details: protein stability index of tFT-peptide fusion in wild type (PSI (0-1 scale)); higher = more stable (slower turnover)
test settings: genetic background: wild type
assay endpoint: protein stability index

seq string: LVVYLSCVARIN
target desc: Saccharomyces cerevisiae
protein stability index: 0.0258

Query: Consider the sequence `RLIQPLPVQMLN` . State its measured protein stability index.
Response: 0.0702

Query: Input `FSMRWTFRYWVW` , output reported protein stability index.
Response: 0.195

Query: Annotate the sequence `LVVYLSCVACIY` with its measured protein stability index.
Response: 0.0122

Query: Annotate the sequence `CTSCGYDFRTNN` with its measured protein stability index.
Response: 0.639

Query: Please indicate protein stability index recorded for `LVVYLSWVACIN`
Response: 0.0137

Query: Give protein stability index for the following sequence: `FSMRWTFFYWVN`
Response: 0.104

====

Tested on: Saccharomyces cerevisiae
assay details: protein stability index of tFT-peptide fusion (C-terminal peptide) (PSI (0-1 scale)); higher = more stable (slower turnover)
test settings: genetic background: das1 deletion; temperature: 30 C
assay endpoint: protein stability index
Write the value as a bare number.

Record excerpt, results attached:
seq string: STHGPGIVIDFA [MRPL1 C-terminal 12 aa]
protein stability index: 0.724
--
seq string: FFLEECHRIGSK [HEM12 C-terminal 12 aa]
protein stability index: 0.726
--
seq string: QEEEEDVATDSE [YRO2 C-terminal 12 aa]
protein stability index: 0.677
--
seq string: SEEKRRLAPADI [YOL019W-A C-terminal 12 aa]
protein stability index: 0.68

Query: Give the measured protein stability index for IDMLKMSNAEEY [YLR012C C-terminal 12 aa]
Response: 0.672

Query: Report protein stability index, nothing else, for this sequence: TRDAPRERSPTR [NPL3 C-terminal 12 aa]
Response: 0.716

Query: Give protein stability index for the following sequence: ALHSEEASFHSL [AIM21 C-terminal 12 aa]
Response: 0.709

====

System: Saccharomyces cerevisiae
assay details: protein stability index of tFT-peptide fusion (C-terminal peptide) (PSI (0-1 scale)); higher = more stable (slower turnover)
test settings: genetic background: wild type; temperature: 30 C
assay endpoint: protein stability index
// return a plain number; no unit text

Here is how some sequences turned out for protein stability index.
seq string: IQKLNKVLEDSI [ATP5 C-terminal 12 aa]
protein stability index: 0.675
//
seq string: MEKENSGLIAFS [HOS2 C-terminal 12 aa]
protein stability index: 0.706
//
seq string: RPMPPIRGPKRR [SMD3 C-terminal 12 aa]
protein stability index: 0.724

Query: Supply measured protein stability index of DEERPSKKPKVE [POB3 C-terminal 12 aa] in your reply.
Response: 0.745
